experiment: Pharmacokinetics after single intravenous administration in rats (plasma voriconazole); conditions: rat, in vivo, 2.5 mg/kg
readoutKind: AUClast (ng·h/mL)
Answer format: numeric, ng·h/mL implied, no suffix.

What value of AUClast has been recorded for this entry: CC(OC(=O)N(C)c1ncccc1COC(=O)CN(C)C)[n+]1cnn(C[C@](O)(c2ccc(F)cc2F)[C@@H](C)c2ncncc2F)c1.Cl.Cl.[Cl-] (stereo partly drawn)
8586

Look up AUClast: CC(OC(=O)N(C)c1ncccc1COC(=O)C(N)CO)[n+]1cnn(CC(O)(c2ccc(F)cc2F)C(C)c2ncncc2F)c1.Cl.Cl.[Cl-] (stereo not drawn)
10526

I'd like to know its AUClast. The compound in question is CN[C@@H](CSC(=O)OC(C)[n+]1cnn(C[C@](O)(c2ccc(F)cc2F)[C@@H](C)c2ncncc2F)c1)C(=O)O.Cl.[Cl-] (stereo partly drawn)
8256

---

assay: Solid stability test (25°C, RH 60%, 30 days); format: physicochemical; details: 25°C±2°C, relative humidity 60%±2%
readoutKind: Content increase of total impurity (25° C., placed for 30 days) (%)
Value expressed in %; do not type the unit.

Fill in the blank: the reported Content increase of total impurity (25° C., placed for 30 days) of CC(OC(=O)N(C)c1ncccc1COC(=O)[C@@H](N)CCCCN)[n+]1cnn(C[C@](O)(c2ccc(F)cc2F)[C@@H](C)c2ncncc2F)c1 (stereo partly drawn) [SF16017] is ____.
0.46

Can you share its Content increase of total impurity (25° C., placed for 30 days)? I mean this compound: CNCC[C@H](N)C(=O)OCc1cccnc1N(C)C(=O)OC(C)[n+]1cnn(C[C@](O)(c2ccc(F)cc2F)[C@@H](C)c2ncncc2F)c1 (stereo partly drawn) [QR16021]
1.14

What value of Content increase of total impurity (25° C., placed for 30 days) has been recorded for this entry: CC(OC(=O)OCCOCCOP(=O)(O)O)[n+]1cnn(C[C@](O)(c2ccc(F)cc2F)[C@@H](C)c2ncncc2F)c1 (stereo partly drawn) [QR16030]
0.94

Endpoint output: Content increase of total impurity (25° C., placed for 30 days) of CC(OC(=O)N(C)c1ncccc1COC(=O)[C@@H](N)CC(N)=O)[n+]1cnn(C[C@](O)(c2ccc(F)cc2F)[C@@H](C)c2ncncc2F)c1.O=S(=O)([O-])O (stereo partly drawn) [SF16014] . Value?
0.36

Item CC(OC(=O)N(C)c1ncccc1COC(=O)[C@@H](N)CCCNC(N)=O)[n+]1cnn(C[C@](O)(c2ccc(F)cc2F)[C@@H](C)c2ncncc2F)c1.[Cl-] (stereo partly drawn) [QR16009] has what recorded Content increase of total impurity (25° C., placed for 30 days)?
0.71

Sample CC(OC(=O)N(C)c1ncccc1COC(=O)[C@@H](N)CCCN)[n+]1cnn(C[C@](O)(c2ccc(F)cc2F)[C@@H](C)c2ncncc2F)c1.Cl.Cl.Cl.[Br-] (stereo partly drawn) [QR16008] — what was its Content increase of total impurity (25° C., placed for 30 days)?
1.05

Recorded Content increase of total impurity (25° C., placed for 30 days) of CC(OC(=O)N(C)c1ncccc1COC(=O)CN)[n+]1cnn(C[C@](O)(c2ccc(F)cc2F)[C@@H](C)c2ncncc2F)c1.O=S(=O)([O-])O (stereo partly drawn) [SF16001] , please.
0.37

Returns the measured Content increase of total impurity (25° C., placed for 30 days) for the input compound. Input: CC(OC(=O)OCCCCOP(=O)(O)O)[n+]1cnn(C[C@](O)(c2ccc(F)cc2F)[C@@H](C)c2ncncc2F)c1 (stereo partly drawn) [QR16024]
2.84

Item under review: CC(OC(=O)OCCS)[n+]1cnn(C[C@](O)(c2ccc(F)cc2F)[C@@H](C)c2ncncc2F)c1 (stereo partly drawn) [Compound 16031] . Reported Content increase of total impurity (25° C., placed for 30 days)?
0.97

Look up Content increase of total impurity (25° C., placed for 30 days): CC(OC(=O)SCCO)[n+]1cnn(C[C@](O)(c2ccc(F)cc2F)[C@@H](C)c2ncncc2F)c1 (stereo partly drawn) [Compound 16037]
2.15

Data request, read-out Content increase of total impurity (25° C., placed for 30 days), for CC(OC(=O)N(C)c1ncccc1COC(=O)C(N)Cc1ccc(O)cc1)[n+]1cnn(CC(O)(c2ccc(F)cc2F)C(C)c2ncncc2F)c1.Cl.Cl.[Cl-] (stereo not drawn) [QR16018]
1.15

Content increase of total impurity (25° C., placed for 30 days) lookup needed for CC(OC(=O)N(C)c1ncccc1COC(=O)[C@@H](N)CCCN)[n+]1cnn(C[C@](O)(c2ccc(F)cc2F)[C@@H](C)c2ncncc2F)c1.Cl.Cl.Cl.[I-] (stereo partly drawn) [QR16006] , thanks.
1.14

---

test: In vitro metabolic stability in human plasma; type: in vitro ADME; conditions: 37°C, compound 10 μM
For each entry below, report its Human plasma T1/2 value.
Report the figure in min without appending any unit label.

Human plasma T1/2 lookup needed for CC(OC(=O)N(C)c1ncccc1COC(=O)CN(C)C)[n+]1cnn(C[C@](O)(c2ccc(F)cc2F)[C@@H](C)c2ncncc2F)c1.Cl.Cl.[Cl-] (stereo partly drawn) [QR16045] , thanks.
8.95

Recorded Human plasma T1/2 of CC(OC(=O)N(C)c1ncccc1COC(=O)[C@@H](N)CCCCN)[n+]1cnn(C[C@](O)(c2ccc(F)cc2F)[C@@H](C)c2ncncc2F)c1.[Cl-] (stereo partly drawn) [QR16017] , please.
0.95

For the compound shown here, CC(O)C(N)C(=O)OCc1cccnc1N(C)C(=O)OC(C)[n+]1cnn(CC(O)(c2ccc(F)cc2F)C(C)c2ncncc2F)c1.Cl.Cl.[Cl-] (stereo not drawn) [QR16016] , give the reported Human plasma T1/2.
2.12

Which Human plasma T1/2 is listed for CC(OC(=O)N(C)c1ncccc1COC(=O)[C@@H](N)CCCN)[n+]1cnn(C[C@](O)(c2ccc(F)cc2F)[C@@H](C)c2ncncc2F)c1.Cl.Cl.Cl.[Br-] (stereo partly drawn) [QR16008] ?
9.49

Given CC(OC(=O)N(C)c1ncccc1COC(=O)C(N)CO)[n+]1cnn(CC(O)(c2ccc(F)cc2F)C(C)c2ncncc2F)c1.Cl.Cl.[Cl-] (stereo not drawn) [QR16015] , state its recorded Human plasma T1/2.
2.05

What Human plasma T1/2 value was documented for this compound, CC(OC(=O)N(C)c1ncccc1COC(=O)CN)[n+]1cnn(C[C@](O)(c2ccc(F)cc2F)[C@@H](C)c2ncncc2F)c1.[Cl-] (stereo partly drawn) [QR16001] ?
1.56

---

experiment: In vitro metabolic stability in rat plasma; assay type: in vitro ADME; conditions: rat, plasma; 37°C, compound 10 μM; read-out: Rat plasma T1/2
Hi there, I'd appreciate the recorded half-life at 10 µM for every entry that follows.
The reply should be a number in min, with the unit left off.

# half-life at 10 µM lookup, item CC(OC(=O)N(C)c1ncccc1CN)[n+]1cnn(C[C@](O)(c2ccc(F)cc2F)[C@@H](C)c2ncncc2F)c1 (some centres unmarked)
29.5

# input compound: CC(OC(=O)SCCO)[n+]1cnn(C[C@](O)(c2ccc(F)cc2F)[C@@H](C)c2ncncc2F)c1 (some centres unmarked) ; wanted: its half-life at 10 µM
7.65

---

assay: Pharmacokinetics after single intravenous administration in rats (plasma voriconazole); details: rat, in vivo, 2.5 mg/kg
Assignment: determine reported AUClast for the given molecules.
Report the value in ng·h/mL with no unit label.

So what's the measured AUClast for this one? CC(OC(=O)N(C)c1ncccc1COC(=O)CN)[n+]1cnn(C[C@](O)(c2ccc(F)cc2F)[C@@H](C)c2ncncc2F)c1.[Cl-] (stereo partly shown) [QR16001]
10515

Query: AUClast; subject: CC(OC(=O)N(C)c1ccccc1COC(=O)[C@@H](N)CCCN)[n+]1cnn(C[C@](O)(c2ccc(F)cc2F)[C@@H](C)c2ncncc2F)c1.[Cl-] (stereo partly shown) [QR16007]
10278

Look up AUClast for this molecule: CC(OC(=O)N(C)c1ncccc1COC(=O)CCC(=O)[O-])[n+]1cnn(C[C@](O)(c2ccc(F)cc2F)[C@@H](C)c2ncncc2F)c1.[Cl-].[Na+] (stereo partly shown) [QR16004]
9586

What value of AUClast has been reported for the following molecule? CC(O)C(N)C(=O)OCc1cccnc1N(C)C(=O)OC(C)[n+]1cnn(CC(O)(c2ccc(F)cc2F)C(C)c2ncncc2F)c1.Cl.Cl.[Cl-] (stereo not shown) [QR16016]
10477

---

test system: Candida albicans ATCC10231; assay: Systemic fungal infection in mice, administration by gavage, survival; type: in vivo; settings: ICR mice, 5 mg/kg (calculated as voriconazole) once daily for 5 days, day 6
Label False if survival rate of mice, day 6 falls below 80%; label True in every other case.

Does CC(OC(=O)OCCOCCOP(=O)(O)O)[n+]1cnn(C[C@](O)(c2ccc(F)cc2F)[C@@H](C)c2ncncc2F)c1 (stereo partly shown) [QR16030] have a reported survival rate of mice, day 6 of at least 80%?
False

Could you verify whether the entry CC(OC(=O)N(C)c1ncccc1COC(=O)[C@@H](N)CCCNC(N)=O)[n+]1cnn(C[C@](O)(c2ccc(F)cc2F)[C@@H](C)c2ncncc2F)c1.[Cl-] (stereo partly shown) [QR16009] shows survival rate of mice, day 6 of no less than 80%?
False

I'd appreciate it if you could say whether CC(OC(=O)N(C)c1ncccc1COC(=O)[C@@H](N)CCCCN)[n+]1cnn(C[C@](O)(c2ccc(F)cc2F)[C@@H](C)c2ncncc2F)c1.[Cl-] (stereo partly shown) [QR16017] has survival rate of mice, day 6 at least equal to 80%.
True

Item CNCc1cccnc1N(C)C(=O)OC(C)[n+]1cnn(C[C@](O)(c2ccc(F)cc2F)[C@@H](C)c2ncncc2F)c1 (stereo partly shown) [QR16023] with survival rate of mice, day 6 of 80% or above?
False

Could you verify whether the entry CC(O)C(N)C(=O)OCc1cccnc1N(C)C(=O)OC(C)[n+]1cnn(CC(O)(c2ccc(F)cc2F)C(C)c2ncncc2F)c1.Cl.Cl.[Cl-] (stereo not shown) [QR16016] shows survival rate of mice, day 6 of no less than 80%?
True

Exam item: decide whether the reported survival rate of mice, day 6 for CC(OC(=O)N(C)c1ncccc1COC(=O)CN(C)C)[n+]1cnn(C[C@](O)(c2ccc(F)cc2F)[C@@H](C)c2ncncc2F)c1.Cl.Cl.[Cl-] (stereo partly shown) [QR16045] is at least 80%.
True
